Reported inhibition at 33 µM by item:
Biological target: HCV-NS5b (Hepatitis C virus genotype 1b)
Construct: (His)6 (C); made in house; host or cells: XL-1 cells (E. coli), IPTG-inducible plasmid, nickel-NTA purification
Assay: HCV-NS5b enzyme assay (incorporation of radiolabeled UTP)
Assay type: biochemical
Settings: enzyme inhibition at compound concentration of 33 uM

COMPOUND	inhibition at 33 µM
Nc1ccc(-c2ccc(Cl)cc2)c(-c2ccc3cc(-c4nc5cc(C(=O)O)ccc5n4C4CCCCC4)ccc3n2)c1 [Compound 569]	101%
O=C(O)c1ccc2c(c1)nc(-c1ccc3nc(C(=O)Nc4ccc(Cl)cc4)ccc3c1)n2C1CCCCC1 [Compound 510]	99.5%
O=C(O)c1ccc(-c2ccc(Cl)cc2)c(-c2ccc3cc(-c4nc5cc(C(=O)O)ccc5n4C4CCCCC4)ccc3n2)c1 [Compound 415]	101%

---

Reported inhibition at 33 µM by item:
Target: HCV-NS5b (Hepatitis C virus genotype 1b)
Construct: (His)6 (C); made in house; host or cells: XL-1 cells (E. coli), IPTG-inducible plasmid, nickel-NTA purification
Assay: HCV-NS5b enzyme assay (incorporation of radiolabeled UTP)
Assay type: biochemical
Settings: enzyme inhibition at compound concentration of 33 uM

SMILES REPRESENTATION	inhibition at 33 µM
COc1ccc(-c2ccc(Cl)cc2)c(-c2ccc3cc(-c4nc5cc(C(=O)O)ccc5n4CCC(C)C)ccc3n2)c1	99.6%
O=C(O)c1ccc2cc(NC(=O)c3ccc4c(c3)nc(-c3ccc5nc(-c6ccccc6)cnc5c3)n4C3CCCCC3)ccc2c1	96.8%
O=C(O)c1ccc2c(c1)nc(-c1ccc3nc(-c4ccccc4-c4ccc(Cl)cc4)ccc3c1)n2C1CCCCC1	99%
COc1ccc(-c2ccc(Cl)cc2)c(-c2ccc3cc(-c4nc5cc(C(=O)O)ccc5n4C4CC4)ccc3n2)c1	100%
O=C(O)c1ccc2c(c1)nc(-c1ccc3nc(-c4ccncc4)ccc3c1)n2C1CCCCC1	87%
O=C(N[C@@H](Cc1ccc(O)cc1)C(=O)O)c1ccc2c(c1)nc(-c1ccc3nc(-c4ccccc4)cnc3c1)n2C1CCCCC1	96.9%
O=C(O)c1ccc2c(c1)nc(-c1ccc3nc(-c4cc5ccccc5o4)ccc3c1)n2C1CCCCC1	95.5%
CCn1c(-c2ccc3nc(-c4cc(OC)ccc4-c4ccc(Cl)cc4)ccc3c2)nc2cc(C(=O)O)ccc21	90.1%
CN(C)CCNC(=O)c1ccc(-c2ccc(Cl)cc2)c(-c2ccc3cc(-c4nc5cc(C(=O)O)ccc5n4C4CCCCC4)ccc3n2)c1	98.3%
COCCOc1ccc(-c2ccc(Cl)cc2)c(-c2ccc3cc(-c4nc5cc(C(=O)O)ccc5n4C4CCCCC4)ccc3n2)c1	97.5%
NC(=O)[C@H](Cc1cnc[nH]1)NC(=O)c1ccc2cc(-c3nc4cc(C(=O)O)ccc4n3C3CCCCC3)ccc2n1	51.2%
CC(=O)Nc1ccc(-c2ccc3cc(-c4nc5cc(C(=O)O)ccc5n4C4CCCCC4)ccc3n2)cc1	90.6%
O=C(N[C@@H](Cc1c[nH]c2ccc(O)cc12)C(=O)O)c1ccc2c(c1)nc(-c1ccc3nc(-c4cc(C(=O)N5CCCC5)ccc4-c4ccc(Cl)cc4)ccc3c1)n2C1CCCCC1	99.1%
COc1ccc(-c2ccc(F)c(Cl)c2)c(-c2ccc3cc(-c4nc5cc(C(=O)O)ccc5n4C4CCCCC4)ccc3n2)c1	97.6%
O=C(O)c1ccc2c(c1)nc(-c1ccc3nc(-c4cc(O)ccc4-c4ccc(Cl)cc4)ccc3c1)n2C1CCCCC1	101%

---

Molecular target: HCV-NS5b (Hepatitis C virus genotype 1b)
Construct: (His)6 (C); made in house; host or cells: XL-1 cells (E. coli), IPTG-inducible plasmid, nickel-NTA purification
Test: HCV-NS5b enzyme assay (incorporation of radiolabeled UTP)
Type: biochemical
Conditions: enzyme inhibition at compound concentration of 33 uM
MEASURE NAME: inhibition at 33 µM

COMPOUND	EXPERIMENTAL VALUE
COc1ccc(-c2ccc(Cl)cc2)c(-c2ccc3cc(-c4nc5cc(C(=O)O)ccc5n4C4CCCC4)ccc3n2)c1 [Compound 529]	99.2%
NC(=O)[C@H](CO)NC(=O)c1ccc2cc(-c3nc4cc(C(=O)O)ccc4n3C3CCCCC3)ccc2n1 [Compound 385]	42.6%
COc1ccc(-c2cccc(C(=O)O)c2)c(-c2ccc3cc(-c4nc5cc(C(=O)O)ccc5n4C4CCCCC4)ccc3n2)c1 [Compound 437]	100%
CN(C)CCNC(=O)c1ccc(-c2ccccc2)c(-c2ccc3cc(-c4nc5cc(C(=O)O)ccc5n4C4CCCCC4)ccc3n2)c1 [Compound 504]	98.3%
O=C(O)[C@@H]1C[C@@H](O)CN1C(=O)c1ccc2c(c1)nc(-c1ccc3nc(-c4ccccc4)cnc3c1)n2C1CCCCC1 [Compound 248]	47.4%
O=C(N[C@@H](Cc1c[nH]c2ccc(O)cc12)C(=O)O)c1ccc2c(c1)nc(-c1ccc3ncc(-c4ccccc4)cc3c1)n2C1CCCCC1 [Compound 238]	97.6%
Nc1cc(-c2ccccc2)sc1-c1ccc2cc(-c3nc4cc(C(=O)O)ccc4n3C3CCCCC3)ccc2n1 [Compound 480]	101%
COc1ccc(-c2cccc([N+](=O)[O-])c2)c(-c2ccc3cc(-c4nc5cc(C(=O)O)ccc5n4C4CCCCC4)ccc3n2)c1 [Compound 420]	98.3%
CCc1ccc(-c2ccc(OC)cc2-c2ccc3cc(-c4nc5cc(C(=O)O)ccc5n4C4CCCCC4)ccc3n2)cc1 [Compound 557]	103%
O=C(O)c1ccc2c(c1)nc(-c1ccc3nc(-c4cc(Br)ccc4O)ccc3c1)n2C1CCCCC1 [Compound 354]	98%
Cc1nn(-c2ccccc2)c(C)c1-c1ccc2cc(-c3nc4cc(C(=O)O)ccc4n3C3CCCCC3)ccc2n1 [Compound 464]	99.7%
O=C(O)c1ccc2c(c1)nc(-c1ccc3nc(-c4ccc(N5CCNCC5)cc4)ccc3c1)n2C1CCCCC1 [Compound 488]	91.8%
O=C(N[C@@H](Cc1c[nH]c2ccc(O)cc12)C(=O)O)c1ccc2c(c1)nc(-c1ccc3nc(-c4ccccc4)cnc3c1)n2C1CCCCC1 [Compound 234]	98.6%
COc1ccc(-c2ccccc2F)c(-c2ccc3cc(-c4nc5cc(C(=O)O)ccc5n4C4CCCCC4)ccc3n2)c1 [Compound 544]	102%
COc1ccc(-c2ccc(C(N)=O)cc2)c(-c2ccc3cc(-c4nc5cc(C(=O)O)ccc5n4C4CCCCC4)ccc3n2)c1 [Compound 382]	101%
O=C(c1ccc2c(c1)nc(-c1cc3ccc(-c4ccccc4-c4ccc(Cl)cc4)nc3cc1F)n2C1CCCCC1)N1CCC(O)CC1 [Compound 514]	89.6%
O=C(O)c1ccc2c(c1)nc(-c1ccc3nc(-c4ccccn4)ccc3c1)n2C1CCCCC1 [Compound 427]	93.8%
Cc1oc2ccc(OCc3ccccc3)cc2c1-c1ccc2cc(-c3nc4cc(C(=O)O)ccc4n3C3CCCCC3)ccc2n1 [Compound 448]	94.6%
O=C(O)c1ccc2c(c1)nc(-c1ccc3nc(-c4ccc(N5CCOCC5)cc4)ccc3c1)n2C1CCCCC1 [Compound 429]	96.2%
Cc1c(OCc2ccccc2)ccc(-c2ccc3cc(-c4nc5cc(C(=O)O)ccc5n4C4CCCCC4)ccc3n2)c1O [Compound 462]	98.2%
Cc1nc(C)c(-c2ccc3cc(-c4nc5cc(C(=O)O)ccc5n4C4CCCCC4)ccc3n2)s1 [Compound 426]	96.6%
O=C(O)c1ccc2c(c1)nc(-c1ccc3nc(-c4ccc5c(c4)CCCC5)ccc3c1)n2C1CCCCC1 [Compound 459]	99.5%

---

Reported inhibition at 100 µM by item:
Molecular target: HCV-NS5b (Hepatitis C virus genotype 1b, UniProt Q9WMX2)
Construct: (His)6 (C); made in house; host or cells: XL-1 cells (E. coli), IPTG-inducible plasmid, nickel-NTA purification
Experiment: HCV-NS5b enzyme assay (incorporation of radiolabeled UTP)
Type: biochemical
Conditions: read-out: % inh@100, enzyme inhibition at compound concentration of 100 uM
MEASURE NAME: inhibition at 100 µM (%)

COMPOUND	TESTED ON	MEASURE NAME	UNITS LABEL	EXPERIMENTAL VALUE
CN(C)CCNC(=O)c1ccc(-c2ccccc2)c(-c2ccc3cc(-c4nc5cc(C(=O)O)ccc5n4C4CCCCC4)ccc3n2)c1	HCV-NS5b (Hepatitis C virus genotype 1b, UniProt Q9WMX2)	inhibition at 100 µM	%	100
O=C(O)CCNC(=O)c1ccc2c(c1)nc(-c1ccc3nc(-c4ccccc4)cnc3c1)n2C1CCCCC1	HCV-NS5b (Hepatitis C virus genotype 1b, UniProt Q9WMX2)	inhibition at 100 µM	%	70.2
Nc1cc(-c2ccccc2)sc1-c1ccc2cc(-c3nc4cc(C(=O)O)ccc4n3C3CCCCC3)ccc2n1	HCV-NS5b (Hepatitis C virus genotype 1b, UniProt Q9WMX2)	inhibition at 100 µM	%	104
O=C(N[C@@H](Cc1ccc(C(=O)c2ccccc2)cc1)C(=O)O)c1ccc2c(c1)nc(-c1ccc3nc(-c4ccccc4)cnc3c1)n2C1CCCCC1	HCV-NS5b (Hepatitis C virus genotype 1b, UniProt Q9WMX2)	inhibition at 100 µM	%	98.4
NC(=O)C[C@H](NC(=O)c1ccc2c(c1)nc(-c1ccc3nc(-c4ccccc4)cnc3c1)n2C1CCCCC1)C(=O)O	HCV-NS5b (Hepatitis C virus genotype 1b, UniProt Q9WMX2)	inhibition at 100 µM	%	97.8
COc1ccc(-c2ccc(Cl)cc2)c(-c2ccc3cc(-c4nc5cc(C(=O)O)ccc5n4C4CCCCC4C)ccc3n2)c1 (stereo not shown)	HCV-NS5b (Hepatitis C virus genotype 1b, UniProt Q9WMX2)	inhibition at 100 µM	%	102
O=C(O)c1ccc2c(c1)nc(-c1ccc3nc(-c4ccncc4)ccc3c1)n2C1CCCCC1	HCV-NS5b (Hepatitis C virus genotype 1b, UniProt Q9WMX2)	inhibition at 100 µM	%	98.7
